molecular target: Nucleic Acid; assay: Binding affinity to RNA by RNA fluorescence assay
pEC50: −log10 of the molar value.
Measured Property: pEC50

Query Smiles | Measured Property | Recorded Number
NCC[C@H](O)C(=O)N[C@@H]1C[C@H](N)[C@@]2(CC[C@H](O)[C@H](O)CO2)[C@H](O)[C@H]1O | pEC50 | 5.16
N[C@@H]1C[C@H](N)[C@@]2(CC[C@H](O)[C@H](O)CO2)[C@H](O)[C@H]1O | pEC50 | 4.13
NC[C@H]1O[C@H](O[C@H]2[C@H](O)[C@@H](O)[C@H](N)C[C@@H]2N)[C@H](N)[C@@H](O)[C@@H]1O | pEC50 | 5.02
NC[C@@H]1O[C@H](O[C@H]2[C@@H](O)[C@H](O[C@@H]3[C@@H](O)[C@H](N)C[C@H](N)[C@H]3O[C@H]3O[C@H](CN)[C@@H](O)[C@H](O)[C@H]3N)O[C@@H]2CO)[C@H](N)[C@@H](O)[C@@H]1O | pEC50 | 8.15
N[C@@H]1C[C@H](N)[C@@]2(CCC=CCO2)[C@H](O)[C@H]1O | pEC50 | 5.08
